Tested on: Caco2 cells
Test: Cell permeability, flux assay using Caco2 cells
Format: in vitro ADME
Conditions: 2 hours
Square brackets hold non-standard residues; d marks the D form. Peptide text beside a SMILES is read from it. * marks the point of attachment. X1 = CC(C)[C@@H](C(=O)*)N(C)CCCCCC(=O)NCCCC[C@H](N)C(=O)O; Dolaproine = CO[C@@H]([C@@H]1CCCN1)[C@@H](C)C(=O)O; Dil = CC[C@H](C)[C@H](NC)[C@@H](CC(=O)O)OC
MEASURED METRIC: Papp (B-A) (×10⁻⁶ cm/s)
Report only the number, with the unit ×10⁻⁶ cm/s understood.

Recorded results for 2 compounds are shown here.
Query string: May I ask what Papp (B-A) has been recorded for CC[C@H](C)[C@@H]([C@@H](CC(=O)N1CCC[C@H]1[C@H](OC)[C@@H](C)C(=O)N[C@@H](Cc1c[nH]c2ccccc12)C(N)=O)OC)N(C)C(=O)[C@@H](NC(=O)[C@H](C(C)C)N(C)CCCC(=O)NNC(=O)CCCCCN1C(=O)CC(SC[C@H](N)C(=O)O)C1=O)C(C)C (stereo partly drawn) ?
Result string: 0.2

Query string: Moving on to CC[C@H](C)[C@@H]([C@@H](CC(=O)N1CCC[C@H]1[C@H](OC)[C@@H](C)C(=O)N[C@@H](Cc1c[nH]c2ccccc12)C(=O)O)OC)N(C)C(=O)[C@@H](NC(=O)[C@H](C(C)C)N(C)CCCCCC(=O)NCCCC[C@H](N)C(=O)O)C(C)C [Example 278] (X1-V[Dil][Dolaproine]W-OH)
Result string: 0.1

From here, focus on the item given below.
Query string: Query (compound): CC[C@H](C)[C@@H]([C@@H](CC(=O)N1CCC[C@H]1[C@H](OC)[C@@H](C)C(=O)N[C@@]1(C(=O)N2CCCCO2)C[C@@H]1c1ccccc1)OC)N(C)C(=O)[C@@H](NC(=O)[C@H](C(C)C)N(C)CCCC(=O)NNC(=O)CCCCCN1C(=O)CC(SC[C@H](N)C(=O)O)C1=O)C(C)C (stereo partly drawn) ; field requested: Papp (B-A)
Result string: 0.25

The values you see were collected from patent US20150246136A1.
